Quick list: TGI per entry.
- Test system: M19-MEL melanoma
- assay-summary: NCI tumour cell line growth inhibition, 48 h

COc1ccc2c(c1)[n+]([O-])c(/C(C)=N/NC(=O)c1ccccc1O)c(C)[n+]2[O-] : > 100 µM
CN(C)C(=NC#N)N(Cc1ccccc1)Cc1ccccc1 : > 100 µM
CC[PH+](CC)CC.CC[PH+](CC)CC.[Au] : 31.9 µM
COC(=O)C(=O)C(/C(=N/N)C(=O)Nc1ccccc1C(N)=O)c1nc2ccc([N+](=O)[O-])cc2[nH]c1=O (configuration not stated) : > 100 µM
Cc1nc2c3c(ccc2[nH]c1=O)C(=O)c1ccccc1C3=O : > 100 µM
CC(C)C(Sc1nc(-c2ccccc2)c(-c2ccccc2)[nH]1)c1n[nH]c(=S)n1-c1ccccc1 (configuration not stated) : 35.5 µM

Shifting focus to the molecule that follows.
For record O=C(O)CCN(CCCN(CCC(=O)O)CCC(=O)O)CCC(=O)O the listed TGI is > 100 µM

----------
TGI for assorted compounds
- Test system: A549 NSCLC
- assay-summary: NCI tumour cell line growth inhibition, 48 h

As a guide, the following entries are already answered.
NC(=O)CCC(NC(=O)c1c2ccccc2nc2ccccc12)C(=O)O (configuration not stated) : > 100 µM
CCCC(=O)OC[n+]1ccc(-c2c(COC(=O)NC(C)C)c(COC(=O)NC(C)C)c3n2CCC3)cc1 : > 100 µM
O=C(O)Cc1ccc(N=Nc2c(O)c(C(=O)O)cc3ccccc23)cc1 : > 100 µM
CCNc1nnc(-c2ccccc2Nc2ccccc2-c2nnc(NCC)s2)s1 : > 62 µM
COc1ccc(/C=C2\CCC(CCN3CCOCC3)C2=O)cc1 (configuration not stated) : > 100 µM
CC(C(=O)n1ccnc1)N1c2ccccc2Sc2ccccc21 (configuration not stated) : > 100 µM
COc1ccc(-c2cn(-c3cc(OC)c(OC)c(OC)c3)c(=O)[nH]2)cc1OC : > 100 µM
CCN(CC)Cc1cc(Nc2ccnc3ccc4nn(C)nc4c23)ccc1O : 80 µM

TGI recorded for this compound, O=C(Cc1nc2ccc([N+](=O)[O-])cc2[nH]c1=O)C(=O)Nc1ccccc1[N+](=O)[O-] , is > 100 µM

The value of TGI measured for the compound CC/C=C\C[C@H](O)C/C=C1/C(=O)C=C[C@@H]1C/C=C\CCCCO turned out to be 11.5 µM

The compound NC(N)=NS(=O)(=O)c1ccc(NC(=O)c2cccc3c(N)c4ccccc4nc23)cc1 showed TGI equal to > 100 µM

Documented TGI of CN(C)CCNC(=O)c1ccc2oc3cc4ccccc4c(=O)n3c2c1 : 97 µM

The measured TGI associated with O=C1CS(=O)(=O)C(c2cccc(Oc3ccccc3)c2)N1C1CC1 (configuration not stated) reads > 100 µM

get_value(item= Oc1ccccc1/C=N\NC(=S)N/N=C/c1ccccc1O , readout=TGI) returns > 100 µM

Short answer for O=c1oc2ccc(Br)cc2c(=O)n1-c1ccc(Cl)cc1F : TGI was > 94.8 µM

GET /value?item= C=CCCCC1(C)CCNC1=S (configuration not stated) &field=TGI returns > 100 µM

Form field TGI, entry CN1CC2=C(NC(=S)NC2c2ccccc2Cl)/C(=C/c2ccccc2Cl)C1 (configuration not stated) : > 100 µM

----------
# TGI listing for each entry below
- Test system: SW-620 colon
- assay-summary: NCI tumour cell line growth inhibition, 48 h

Here are 4 molecules together with their reported answers.
O=c1[nH]c2cc([N+](=O)[O-])c(N/N=C/c3ccc(Cl)cc3Cl)c([N+](=O)[O-])c2[nH]1 : > 100 µM
CC1(C)CCCCCCCCCC2CC2CCC(C)(C)C1=O (stereo not given) : > 100 µM
O=C(Cc1nc2ccc([N+](=O)[O-])cc2[nH]c1=O)C(=O)Nc1ccccc1[N+](=O)[O-] : > 100 µM
CCC1(c2ccc(N)cc2)CCC(=O)NC1=O (stereo not given) : > 3970 µM

Lab entry: SW-620 colon assay, molecule CNC(=O)c1cccc(C#Cc2cncnc2Nc2ccc(OCc3cccc(F)c3)c(Cl)c2)c1 , TGI = > 25 µM

----------
- Test system: HT29 colon
- assay-summary: NCI tumour cell line growth inhibition, 48 h
Reported TGI by item:

Worked examples, 2 molecules total:
Cc1ccc2c3c1[C@@H]1O[C@@H]1c1cccc(c1-3)[C@@H]1O[C@H]21 : 23.4 µM
O=C1[C@@H](O)[C@@H]2CCCC[C@@]23CCCN13 : > 100 µM

Next molecule, please.
Observed TGI on HT29 colon, entry Cn1c(=O)ccc2c(=O)c3ccccc3oc21 , equals > 100 µM

----------
- System: OVCAR-8 ovarian
- assay-summary: NCI tumour cell line growth inhibition, 48 h
parameter: TGI

Examples with their reported TGI follow.
O=C1CC(N2C(=O)/C(=C/C(Cl)=C\c3ccc([N+](=O)[O-])cc3)SC2=S)C(=O)N1c1ccc(O)cc1 (configuration not stated) : 14.2 µM
Cc1ccc(-c2nnc3s/c(=C\c4ccc(N(C)C)cc4)c(=O)n23)cc1 : > 100 µM
Cn1cc(-c2nnc(-c3ccc(Cl)cc3)[nH]c2=O)c2ccccc21 : > 100 µM

Record for CCOC(=O)C1(N)CC1 under target or system OVCAR-8 ovarian: TGI reported as > 100 µM

Record for Cc1cc(=O)n2c3c(c4c(cc13)c(CN(C)C)cc(=O)n4C)OC2 under target or system OVCAR-8 ovarian: TGI reported as > 66.6 µM

Field TGI (OVCAR-8 ovarian), entry COc1cc(C2CC(=O)Nc3c2c(C)nn3-c2nc3ccccc3[nH]2)cc(OC)c1O (configuration not stated) : > 32.1 µM

Entry Cc1ccc(C(=O)Nc2ncn(C3CC(O)C(CO)O3)c(=O)n2)cc1 (configuration not stated) : TGI on OVCAR-8 ovarian = > 100 µM

----------
- Tested on: DU-145 prostate
- assay-summary: NCI tumour cell line growth inhibition, 48 h
parameter: TGI

O=C(NCCCN(CCCCN(CCCNC(=O)c1cc(S(=O)(=O)O)cc(O)c1O)C(=O)c1cc(S(=O)(=O)O)cc(O)c1O)C(=O)c1cc(S(=O)(=O)O)cc(O)c1O)c1cc(S(=O)(=O)O)cc(O)c1O : > 100 µM
N#Cc1c(-c2ccc(Cl)cc2)c2c([nH]c1=O)-c1cc([N+](=O)[O-])ccc1CCC2 : > 100 µM
O=C(O)CCCN=C(C1=C(O)C(=O)N(c2ccccc2)C1=O)c1ccccc1 : > 100 µM
Cn1c(=O)c(Oc2ccc(F)cc2F)cc2cnc(NC3CCOCC3)nc21 : > 25 µM
O=C1c2cc(F)ccc2-c2c1c1ccc([N+](=O)[O-])cc1c(=O)n2CCCBr : > 100 µM
Cc1cc2c(cc1Cl)SC(NNC1=NCCN1)=NS2(=O)=O : > 10 µM
CC(=O)OCCCC#CC#Cc1cccc(=O)o1 : 26.8 µM
CS(=O)(=O)O[C@H]1[C@H](O)c2ccccc2[C@@H]1N=[N+]=[N-] : > 100 µM

Lab note: measured TGI of C=C1C(=O)C2=CC1CCC(=O)C1(C)CCC(OC(C)=O)C(C)(C)C1CC2O (centres undefined) was 13.9 µM

Lab note: measured TGI of C#CCOCn1cc(C)c(=O)[nH]c1=O was > 100 µM

Noted for COc1cc(/C=C/C(=O)c2c(-c3ccc(F)cc3)nc3sc(C)nn23)cc(OC)c1OC : its TGI reads 10.4 µM

TGI reported for this molecule CC1(C)CCCCCCCCCC2CC2CCC(C)(C)C1=O (centres undefined) : 40.9 µM

Consider O=c1oc2ccc(Br)cc2c(=O)n1-c1ccc(Cl)cc1F . Its measured TGI is 21.3 µM

# TGI of Cc1cccc(C)c1N=Nc1ccc(O)c(CN(C)C)c1 = > 100 µM

Reported TGI for CC(=O)n1[nH]c(=O)n(-c2ccccc2)c1=O was > 100 µM

Sample O=c1[nH]nc(Cc2ccccc2)n1/N=C/c1ccc([N+](=O)[O-])cc1 ; TGI observed: > 100 µM

Note to self: TGI recorded for COC(=O)c1oc2c(C(=O)/C=C/c3ccc(OC)cc3)c(OCCN3CCOCC3)ccc2c1C was 4.24 µM

The measured TGI associated with CN1CC2=C(NC(=S)NC2c2ccccc2Cl)/C(=C/c2ccccc2Cl)C1 (centres undefined) reads > 100 µM

// Cc1cc(=O)n2c3c(c4c(cc13)c(CN(C)C)cc(=O)n4C)OC2 : TGI value = > 75.9 µM

What the record says about CC(C)(C)[Si](C)(C)OCC1OC(n2ccc(=O)[nH]c2=O)C(O[Si](C)(C)C(C)(C)C)[C@]12O[C@@H]2CO (some centres undefined) : TGI is 38.1 µM

Lab note: measured TGI of CC(C)Cc1ccc(C(C)C(=O)NCc2ccc(Cn3c(=O)sn(CCCI)c3=O)cc2)cc1 (centres undefined) was 2.12 µM

Given item Cc1ccc(C(=O)N/N=C(\N=Nc2ccccc2Cl)c2ccc(N(C)C)cc2)cc1 , the value recorded as its TGI is 70.6 µM

Note to self: TGI recorded for CC1Cc2ccccc2N1C(=O)Cc1nc(N2CCOCC2)cc(=O)[nH]1 (centres undefined) was > 100 µM

Documented TGI of CC(C(=O)n1ccnc1)N1c2ccccc2Sc2ccccc21 (centres undefined) : > 100 µM
